target: SARS-CoV-2 NSP3 macrodomain (Mac1), P43 crystal form (Severe acute respiratory syndrome coronavirus 2, UniProt P0DTD1); format: binding; settings: occupancy estimate from PanDDA 1-BDC
Measured Property: 2*(1-BDC) (%)

Example entries begin here.
molecule="OCC(Cc1ccccc1)Nc1ncnc2[nH]ccc12 (centres unmarked) [AVI-313]" observed_result=36%
molecule="OCC(Cc1nccs1)Nc1ncnc2[nH]ccc12 (centres unmarked) [AVI-3673]" observed_result=38%
molecule="O=C(O)C1CCCN1S(=O)(=O)c1cccc2nsnc12 (centres unmarked) [AVI-2]" observed_result=40%

Short answer for OCC(O)C1CCCN1c1ncnc2[nH]ccc12 (centres unmarked) [AVI-3701] : 2*(1-BDC) (%) was 36%
